These entries and their values trace back to PubChem BioAssay (NCI).

System: NCI-H226 lung
Experiment: NCI tumour cell line growth inhibition, 48 h
Listing of recorded TGI by entry.
Dear colleague, please return just the value in µM, with no unit written.

O=[N+]([O-])c1cccc([N+](=O)[O-])c1Cl : 68.4

Looking up CCCCCCCCCCC[N+]1(Cc2ccccc2)CC2CCN(Cc3ccccc3)CC2C1 (configuration not stated) , I found its TGI recorded as 1.98

TGI in this record for CCC1(O)CC(O)c2c(O)c3c(c(O)c2C1C(=O)OC)C(=O)c1cccc(O)c1C3=O (configuration not stated) : 18.1

TGI reported for this compound CCn1c(O)c(C(=O)NC(C)c2ccc([N+](=O)[O-])cc2)c(=O)n(CC)c1=S (configuration not stated) : 11.9

TGI measured on C=C1CC(Cn2cc(Br)c(=O)[nH]c2=O)(c2ccc(Br)cc2)OC1=O (configuration not stated) = 36.6

// TGI lookup, compound = "NNc1nnc(-c2ccccc2)nc1Cc1ccccc1" , result: 6.43

Form: compound = "C[C@@H]1C=C(CCCCCCCCCCC[C@H](O)[C@@H]2CCC(=O)O2)C(=O)O1" ; TGI = 68.5

// N#CC(NNC(=O)c1ccccc1O)c1ccc(O)cc1 (configuration not stated) : TGI value = 55.1

Sure, the documented TGI for "COc1ccc(/C=C/C(=O)c2cc3c(N)c(C(=O)Nc4ccccc4Cl)sc3nc2C)cc1" is 17.4

Lab book: TGI of "CCCCCCCCCCC/C(=N/O)c1ccc(O)c2ncccc12" noted as 11.9

response.value for "CCCCCCCCCC(=O)CC(=O)c1ccc(O)cc1O" (field: TGI) = 84.9

---

Test system: UACC-62 melanoma
Test: NCI tumour cell line growth inhibition, 48 h
Short version: TGI at least 20 µM is Satisfied, less is Not satisfied.

Please review the entries below; each comes with its answer.
Clc1ccc(Cc2nc3ccccc3nc2-c2cccc(Cl)c2)cc1 : Not satisfied
OCc1cn(Cc2cccc(Cl)c2)c2ccccc12 : Not satisfied
CN(C)CCCn1c2c(c3cnccc3c1=O)C(=O)c1ccccc1-2 : Not satisfied
CCN(CC)c1ccc(/C=C\c2cc(C)c3cc(C)ccc3n2)cc1 : Satisfied

Exercise: Please indicate if the recorded TGI for O=C1C(Cl)=C(Cl)C(=O)N1C1C2CC3CC(C2)CC1C3 (stereo not given) meets or exceeds 20 µM.
Key: Satisfied

Exercise: TGI >= 20 µM for CSc1nc2c(c(=O)[nH]1)N=C1c3ccccc3C(=O)C1C(c1ccc(F)cc1)N2 (stereo not given) ?
Key: Satisfied

Exercise: Item CC1=C([Se]CC(OC(=O)CC[Se]c2ccccc2)C(=O)NCCCCCC(=O)OCc2ccccc2)C(=O)c2ccccc2C1=O (stereo not given) with TGI of 20 µM or above?
Key: Not satisfied

Exercise: Item "CC(C)NCCNC(=O)c1ccccc1Nc1c(Cl)cccc1Cl" with TGI of 20 µM or above?
Key: Satisfied

Exercise: Check if TGI >= 20 µM (inclusive). Item: CCOc1ccccc1N=NC1C(=O)N(C(=O)CC(=O)Nc2ccccc2OC)N=C1C (stereo not given)
Key: Satisfied

Exercise: Is it the case that "CCCC[C@H]1C(=O)O[C@H](C)[C@H](NC(=O)c2cccc(NC=O)c2O)C(=O)O[C@@H](C)[C@@H]1OC(=O)CC(C)C" has TGI reaching or exceeding 20 µM?
Key: Satisfied
